Ki values by entry
# SUBJECT OF TEST: Myeloid Cell Leukemia 1 (Mcl-1) (Homo sapiens, UniProt Q07820)
# Sequence (Q07820 whole entry): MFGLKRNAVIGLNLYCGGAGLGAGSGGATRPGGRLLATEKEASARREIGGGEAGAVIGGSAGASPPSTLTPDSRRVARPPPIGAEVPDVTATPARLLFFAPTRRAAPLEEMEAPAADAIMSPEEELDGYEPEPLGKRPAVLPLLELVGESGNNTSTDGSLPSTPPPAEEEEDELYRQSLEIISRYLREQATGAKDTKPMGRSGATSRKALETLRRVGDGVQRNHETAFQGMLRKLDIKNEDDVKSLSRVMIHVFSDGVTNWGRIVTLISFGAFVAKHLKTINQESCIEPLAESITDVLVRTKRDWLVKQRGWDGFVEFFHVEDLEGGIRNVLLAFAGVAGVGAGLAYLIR
# PROTOCOL TEXT: biochemical
# Type: binding
# RECORDED CONDITIONS: HTRF Ki (nM)
ASSAY ENDPOINT: Ki (nM)

>>> readout_number("Cc1c2c(nn1C)CSCc1cc(n(CCN3CCOCC3)n1)CSc1cc(c3ccccc3c1)OCCCc1c(C(=O)O)n(C)c3c-2c(Cl)ccc13 [Compound 9]")
0.05
>>> readout_number("Cc1nn(CCCN2CCOCC2)c2c1-c1c(Cl)ccc3c(c(C(=O)O)n(C)c13)CCCOc1cc(cc3ccccc13)SCc1cc(nn1C)CN(C)C2 (single isomer, unassigned) [Compound 33]")
0.03
>>> readout_number("COCCn1nc(C)c2c1CN(C)Cc1cc(n(C)n1)CSc1cc(c3ccccc3c1)OCCCc1c(C(=O)O)n(C)c3c-2c(Cl)ccc13 (single isomer, unassigned) [Compound 25]")
0.04
>>> readout_number("CCn1nc2cc1CSc1cc(c3ccccc3c1)OCCCc1c(C(=O)O)n(C)c3c(c(Cl)ccc13)-c1c(nn(C)c1C)CSC2 (single isomer, unassigned) [Compound 43]")
0.04

----------
# SUBJECT OF TEST: UniProt Q07820
# PROTOCOL TEXT: biochemical
# Type: binding
# RECORDED CONDITIONS: HTRF Ki (nM)
Ki values by entry
ASSAY ENDPOINT: Ki (nM)

>>> readout_number("CCn1nc2cc1CSc1cc(c3ccccc3c1)OCCCc1c(C(=O)O)n(C)c3c(c(Cl)ccc13)-c1c(nn(C)c1C)CSC2 (single isomer, unassigned) [Compound 44]")
4.06
>>> readout_number("Cc1c2c(nn1C)CSCc1cc(nn1CCO)CSc1cc(c3ccccc3c1)OCCCc1c(C(=O)O)n(C)c3c-2c(Cl)ccc13")
0.16
>>> readout_number("COCCn1nc2cc1CSc1cc(c3ccccc3c1)OCCCc1c(C(=O)O)n(C)c3c(c(Cl)ccc13)-c1c(nn(C)c1C)CSC2")
0.11

----------
# Test system: MOLP8 cell line
# PROTOCOL TEXT: MOLP8 CellEvent Caspase-3/7 Green live-cell IncuCyte apoptosis assay
# Format: cell-based, human
# RECORDED CONDITIONS: read-out: MOLP8 Caspase 3/7 AC50 at 22 h; MOLP8 cells, 22 h; averaged values
# Method: MCL-1 is a regulator of apoptosis and is highly over-expressed in tumor cells that escape cell death. […] Activation of the apoptotic pathway was measured using the CellEvent™ Caspase-3/7 Green ReadyProbes™ Reagent (Thermo Fisher C10423, C10723). […] Upon activation of caspase-3/7 in apoptotic cells, the DEVD peptide is cleaved and the free dye can bind DNA, generating a bright green fluorescence. […] The live-cell readout on the IncuCyte permits tracking over time of the Caspase activation. […]
Exam item: assign met to entries whose AC50 is below 5 µM and not met to entries at or above 5 µM. Note that a value of exactly 5 µM receives not met.

>>> answer_label("COCCn1nc2c(c1C)-c1c(Cl)ccc3c(c(C(=O)O)n(C)c13)CCCOc1cc(cc3ccccc13)SCc1cc(nn1C)CN(C)C2 (single isomer, unassigned) [Compound 28]")
"not met"
>>> answer_label("COCCOCCn1nc2c(c1C)-c1c(Cl)ccc3c(c(C(=O)O)n(C)c13)CCCOc1cc(cc3ccccc13)SCc1cc(nn1C)CN(C)C2 (single isomer, unassigned) [Compound 31]")
"met"
>>> answer_label("Cc1nn(CC2CCOCC2)c2c1-c1c(Cl)ccc3c(c(C(=O)O)n(C)c13)CCCOc1cc(cc3ccccc13)SCc1cc(nn1C)CN(C)C2 (single isomer, unassigned) [Compound 18]")
"not met"
>>> answer_label("Cc1nn(CCCN2CCOCC2)c2c1-c1c(Cl)ccc3c(c(C(=O)O)n(C)c13)CCCOc1cc(cc3ccccc13)SCc1cc(nn1C)CN(C)C2 (single isomer, unassigned) [Compound 34]")
"met"
>>> answer_label("Cc1c2c(nn1CCO)CN(C)Cc1cc(n(C)n1)CSc1cc(c3ccccc3c1)OCCCc1c(C(=O)O)n(C)c3c-2c(Cl)ccc13 (single isomer, unassigned) [Compound 38]")
"not met"

----------
# System: MOLP-8 human multiple myeloma cell line
# PROTOCOL TEXT: MOLP8 Caspase-Glo 3/7 luminescent assay
# Type: cell-based
# RECORDED CONDITIONS: read-out: MOLP8 Caspase-Glo AC50; MOLP8 cells, 2 hours incubation; averaged over all runs on all batches
AC50 values by entry
ASSAY ENDPOINT: AC50 (µM)

>>> readout_number("COCCn1nc2c(c1C)-c1c(Cl)ccc3c(c(C(=O)O)n(C)c13)CCCOc1cc(cc3ccccc13)SCc1cc(nn1C)CN(C)C2 (single isomer, unassigned) [Compound 27]")
0.036
>>> readout_number("Cc1[nH]nc2c1-c1c(Cl)ccc3c(c(C(=O)O)n(C)c13)CCCOc1cc(cc3ccccc13)SCc1cc(nn1C)CN(C)C2 (single isomer, unassigned) [Compound 23]")
0.215
>>> readout_number("COCCn1nc2c(c1C)-c1c(Cl)ccc3c(c(C(=O)O)n(C)c13)CCCOc1cc(cc3ccccc13)SCc1cc(nn1C)CN(C)C2 (single isomer, unassigned) [Compound 28]")
5.41
>>> readout_number("Cc1[nH]nc2c1-c1c(Cl)ccc3c(c(C(=O)O)n(C)c13)CCCOc1cc(cc3ccccc13)SCc1cc(nn1C)CN(C)C2 (single isomer, unassigned) [Compound 24]")
8.16
>>> readout_number("CCn1nc2cc1CSc1cc(c3ccccc3c1)OCCCc1c(C(=O)O)n(C)c3c(c(Cl)ccc13)-c1c(nn(C)c1C)CSC2 (single isomer, unassigned) [Compound 43]")
0.063
>>> readout_number("CCn1nc2cc1CSc1cc(c3ccccc3c1)OCCCc1c(C(=O)O)n(C)c3c(c(Cl)ccc13)-c1c(nn(C)c1C)CSC2 (single isomer, unassigned) [Compound 44]")
3.56

----------
# Test system: MOLP8 cell line
# PROTOCOL TEXT: MOLP8 CellEvent Caspase-3/7 Green live-cell IncuCyte apoptosis assay
# Format: cell-based, human
# RECORDED CONDITIONS: read-out: MOLP8 Caspase 3/7 AC50 at 22 h; MOLP8 cells, 22 h; averaged values
ASSAY ENDPOINT: AC50 (µM)

>>> readout_number("Cc1nn(CC2CCOCC2)c2c1-c1c(Cl)ccc3c(c(C(=O)O)n(C)c13)CCCOc1cc(cc3ccccc13)SCc1cc(nn1C)CN(C)C2 (single isomer, unassigned) [Compound 15]")
0.19
>>> readout_number("Cc1[nH]nc2c1-c1c(Cl)ccc3c(c(C(=O)O)n(C)c13)CCCOc1cc(cc3ccccc13)SCc1cc(nn1C)CN(C)C2 (single isomer, unassigned) [Compound 23]")
0.42
>>> readout_number("Cc1c2c(nn1CCN1CCOCC1)CN(C)Cc1cc(n(C)n1)CSc1cc(c3ccccc3c1)OCCCc1c(C(=O)O)n(C)c3c-2c(Cl)ccc13 (single isomer, unassigned) [Compound 13]")
0.17
>>> readout_number("Cc1nn(CCO)c2c1-c1c(Cl)ccc3c(c(C(=O)O)n(C)c13)CCCOc1cc(cc3ccccc13)SCc1cc(nn1C)CN(C)C2 (single isomer, unassigned) [Compound 39]")
0.65
>>> readout_number("COCCOCCn1nc(C)c2c1CN(C)Cc1cc(n(C)n1)CSc1cc(c3ccccc3c1)OCCCc1c(C(=O)O)n(C)c3c-2c(Cl)ccc13 (single isomer, unassigned) [Compound 29]")
0.06

----------
# Test system: MOLP8 cell line
# PROTOCOL TEXT: MOLP8 CellEvent Caspase-3/7 Green live-cell IncuCyte apoptosis assay
# Type: cell-based, human
# RECORDED CONDITIONS: read-out: MOLP8 Caspase 3/7 AC50 at 22 h; MOLP8 cells, 22 h; averaged values
Exam item: assign Criterion met to entries whose AC50 is below 7 µM and Criterion not met to entries at or above 7 µM. Note that a value of exactly 7 µM receives Criterion not met.

>>> answer_label("Cc1nn(CCN2CCOCC2)c2c1-c1c(Cl)ccc3c(c(C(=O)O)n(C)c13)CCCOc1cc(cc3ccccc13)SCc1cc(nn1C)CN(C)C2 (single isomer, unassigned) [Compound 41]")
"Criterion met"
>>> answer_label("Cc1c2c(nn1CCN1CCOCC1)CN(C)Cc1cc(n(C)n1)CSc1cc(c3ccccc3c1)OCCCc1c(C(=O)O)n(C)c3c-2c(Cl)ccc13 (single isomer, unassigned) [Compound 14]")
"Criterion not met"
>>> answer_label("COCCOCCn1nc(C)c2c1CN(C)Cc1cc(n(C)n1)CSc1cc(c3ccccc3c1)OCCCc1c(C(=O)O)n(C)c3c-2c(Cl)ccc13 (single isomer, unassigned) [Compound 30]")
"Criterion met"
>>> answer_label("Cc1[nH]nc2c1-c1c(Cl)ccc3c(c(C(=O)O)n(C)c13)CCCOc1cc(cc3ccccc13)SCc1cc(nn1C)CN(C)C2 (single isomer, unassigned) [Compound 24]")
"Criterion not met"
>>> answer_label("Cc1c2c(nn1CCCN1CCOCC1)CN(C)Cc1cc(n(C)n1)CSc1cc(c3ccccc3c1)OCCCc1c(C(=O)O)n(C)c3c-2c(Cl)ccc13 (single isomer, unassigned) [Compound 36]")
"Criterion met"
